- System: Mus musculus
- Test Protocol: Toxicity in C57BL/6 mouse assessed as body weight at 0.5 mg/kg, ip qd for 5 days ( RVb = 19.06 +/- 1.35 g)
- Type: organism-based
- Design: dose 0.5 mg/kg, route intraperitoneal
- Measurement Context: in vivo, 120 h

Molecule | Assay System | Activity, g
CCC1(O)CC(=O)OCc2c1cc1n(c2=O)Cc2c-1nc1cccc(OC)c1c2C (centres undefined) | Mus musculus | 19.77
CCC1(O)CC(=O)OCc2c1cc1n(c2=O)Cc2c-1nc1ccccc1c2C(F)(F)F (racemic) | Mus musculus | 19.16
CC[C@@]1(O)C(=O)OCc2c1cc1n(c2=O)Cc2cc3c(CN(C)C)c(O)ccc3nc2-1 | Mus musculus | 19.24
CCC1(O)CC(=O)OCc2c1cc1n(c2=O)Cc2c-1nc1ccccc1c2C (centres undefined) | Mus musculus | 18.8
